- Test Name: Oral bioavailability and plasma kinetics in mice (serum concentration)
- Format: in vivo, Balb/c mice
- Measurement Setup: female, Balb/c, mouse, serum, po, 75 mg/kg, 75 mg/kg oral, sample at 40 minutes, read-out: c in the serum 1st analysis
Counter-ions that a name gives are not always drawn.
Assay Metric: concentration at 40 min (ng/mL)
Give bare numbers, in ng/mL.

- Compound: "N=C(N)Nc1ccc(CNC(=O)[C@H](CCc2ccccc2)NC(=O)C(CO)NS(=O)(=O)Cc2ccccc2)cc1 (some centres unmarked) [WX-550, hydrochloride]"
  Unit Annotation: "ng/mL"
  Value Observed: 300

Consider the record given below.
Fill in reported concentration at 40 min for this entry: "C[C@@H](C(=O)NCc1ccc(NC(=N)N)cc1)N(C)C(=O)[C@@H](CO)NS(=O)(=O)Cc1ccc(Cl)cc1"
700

###

- Test Name: Oral bioavailability and plasma kinetics in mice (serum concentration)
- Format: in vivo, Balb/c mice
- Measurement Setup: mouse, 10 mg/kg i.v., time of sample collection 10
Where a name gives a salt, the structure may show the parent alone.
Assay Metric: c in the serum 2nd analysis (µg/mL)
One number for each entry, in µg/mL.

Here's what some known entries look like.
- Compound: "C[C@H](NC(=O)C(CO)NS(=O)(=O)Cc1ccccc1)C(=O)NCc1ccc(NC(=N)N)cc1 (stereo partly shown) [WX-532, hydrochloride]"
  Unit Annotation: "µg/mL"
  c in the serum 2nd analysis: 3.5
- Compound: "N=C(N)Nc1ccc(CNC(=O)CNC(=O)[C@@H](CO)NS(=O)(=O)Cc2ccccc2)cc1 [WX-508, hydrochloride]"
  Unit Annotation: "µg/mL"
  c in the serum 2nd analysis: 4.7
- Compound: "N=C(N)Nc1ccc(CNC(=O)CNC(=O)C(CO)NS(=O)(=O)Cc2cccc(Cl)c2)cc1 (stereo not shown) [WX-C318, hydrochloride]"
  Unit Annotation: "µg/mL"
  c in the serum 2nd analysis: 5.5

// next entry
Give c in the serum 2nd analysis for the following compound: N=C(N)Nc1ccc(CNC(=O)CNC(=O)C(CO)NS(=O)(=O)Cc2cccc([N+](=O)[O-])c2)cc1 (stereo not shown) [WX-C316, hydrochloride]
14.3

###

I'd appreciate it if you could supply concentration at 40 min values for the items below.
- Test Name: Oral bioavailability and plasma kinetics in mice (serum concentration)
- Format: in vivo, Balb/c mice
- Measurement Setup: female, Balb/c, mouse, serum, po, 30 mg/kg, 30 mg/kg oral, sample at 40 minutes, read-out: c in the serum 1st analysis
Counter-ions that a name gives are not always drawn.
Numbers only, in ng/mL.

- Compound: "N=C(N)Nc1ccc(CNC(=O)CNC(=O)C(CO)NS(=O)(=O)Cc2cccc([N+](=O)[O-])c2)cc1 (stereo not shown) [WX-C316, hydrochloride]"
  concentration at 40 min / ng/mL: 5900
- Compound: "N=C(N)Nc1ccc(CNC(=O)CNC(=O)[C@@H](CO)NS(=O)(=O)Cc2ccccc2)cc1 [WX-508, hydrochloride]"
  concentration at 40 min / ng/mL: 5700
- Compound: "CC1(C)C2CCC1(CS(=O)(=O)NC(CO)C(=O)NCC(=O)NCc1ccc(NC(=N)N)cc1)C(=O)C2 (stereo not shown) [WX-C298, hydrochloride]"
  concentration at 40 min / ng/mL: 400
- Compound: "N=C(N)Nc1ccc(CNC(=O)CNC(=O)C(CO)NS(=O)(=O)Cc2ccc(Cl)cc2)cc1 (stereo not shown) [WX-C340, hydrochloride]"
  concentration at 40 min / ng/mL: 300
- Compound: "CN(CC(=O)NCc1ccc(NC(=N)N)cc1)C(=O)C(CO)NS(=O)(=O)Cc1ccccc1 (stereo not shown)"
  concentration at 40 min / ng/mL: 50

Below are 2 compounds. Give each one its concentration at 40 min.
1. C[C@H](NC(=O)C(CO)NS(=O)(=O)Cc1ccccc1)C(=O)NCc1ccc(NC(=N)N)cc1 (stereo partly shown) [WX-532, hydrochloride]
2. CCCCS(=O)(=O)NC(CO)C(=O)NCC(=O)NCc1ccc(NC(=N)N)cc1 (stereo not shown) [WX-C300, hydrochloride]

1: 10900; 2: 200
